Each recorded value in this set is attributed to PubChem BioAssay (NCI).

- experimental_protocol: NCI Yeast Anticancer Drug Screen. Data for the wt1 strain (AID 149);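 note: 0% = growth of vehicle-treated wt1 cultures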
- run_conditions: S. cerevisiae wt1 strain (SPY 50644) growth inhibition; at 100.0 µM; hits give high values
About 79,000 compounds went through this panel and 15% of them were active in at least one assay; those are over-represented in the sample as a whole.
metric: growth inhibition (%)
Give bare numbers, in %.

Here's what some known entries look like.
N#CCCC1C(C#N)C2(Cl)CC1(Cl)C(Cl)=C2Cl (stereo unspecified) :: 98
O=[N+]([O-])c1ccc2[nH]c3c(-c4ccccc4)nccc3c2c1 :: 92
Cc1ccc(C)c(C(=N)c2ccccc2Cc2ccccc2)c1 :: 97
COc1ccc2nc3cccc([N+](=O)[O-])c3c(NCCNCCO)c2c1 :: 70
O=[N+]([O-])c1cn[n+]([O-])c2ccccc12 :: 99

response.value for O=C1c2ccccc2C(=O)c2sc(Nc3ccccc3Cl)nc21 (field: growth inhibition) = 98
